Target: EGFR (d746-750) (Homo sapiens (Human), UniProt P00533, DEL746-750)
Assay: Biochemical EGFR inhibition assay, EGFR (d746-750)
Details: Caliper mobility shift; 1.0 mM ATP or ATP Km; read-out: Enz EGFR_Exon19-del746-750 IC50
IC50 less than 1 nM is rule met; IC50 greater than or equal to 1 nM is rule not met.

Quick check: IC50 of COc1cc2ncnc(-c3cn(C4CC4)nc3-c3ccccc3)c2nc1NC(=O)[C@]12C[C@H]1CN(C)C2 (single isomer, unassigned) under 1 nM?
rule met

***
Quick check: IC50 of CCOc1cc2ncnc(-c3cn(C)nc3-c3ccccc3)c2cc1[C@@H](C)O (single isomer, unassigned) under 1 nM?
rule not met

Quick check: IC50 of COc1cc2ncnc(-c3cn(C)nc3-c3ccccc3F)c2cc1N1CCOCC1 under 1 nM?
rule not met

Quick check: IC50 of CCOc1cc2ncnc(-c3cn(C)nc3-c3ccccc3)c2cc1OC1CCOCC1 under 1 nM?
rule met

Quick check: IC50 of CCOc1cc2ncnc(-c3cn(C)nc3-c3ccccc3)c2cc1N1CCOCC1 under 1 nM?
rule not met

Quick check: IC50 of COc1cc2ncnc(-c3cn(C)nc3-c3ccccc3)c2cc1OC(=O)N1[C@@H](C)CN(C)C[C@@H]1C under 1 nM?
rule not met

====

Listing: pIC50 of selected compounds
Target: pEGFR (Tyr1068) in PC-9 cells (Ex19Del) (Homo sapiens (Human), UniProt P00533, DEL746-750)
Sequence (P00533 other isoform, or with tags, fused parts or gaps del 746-750): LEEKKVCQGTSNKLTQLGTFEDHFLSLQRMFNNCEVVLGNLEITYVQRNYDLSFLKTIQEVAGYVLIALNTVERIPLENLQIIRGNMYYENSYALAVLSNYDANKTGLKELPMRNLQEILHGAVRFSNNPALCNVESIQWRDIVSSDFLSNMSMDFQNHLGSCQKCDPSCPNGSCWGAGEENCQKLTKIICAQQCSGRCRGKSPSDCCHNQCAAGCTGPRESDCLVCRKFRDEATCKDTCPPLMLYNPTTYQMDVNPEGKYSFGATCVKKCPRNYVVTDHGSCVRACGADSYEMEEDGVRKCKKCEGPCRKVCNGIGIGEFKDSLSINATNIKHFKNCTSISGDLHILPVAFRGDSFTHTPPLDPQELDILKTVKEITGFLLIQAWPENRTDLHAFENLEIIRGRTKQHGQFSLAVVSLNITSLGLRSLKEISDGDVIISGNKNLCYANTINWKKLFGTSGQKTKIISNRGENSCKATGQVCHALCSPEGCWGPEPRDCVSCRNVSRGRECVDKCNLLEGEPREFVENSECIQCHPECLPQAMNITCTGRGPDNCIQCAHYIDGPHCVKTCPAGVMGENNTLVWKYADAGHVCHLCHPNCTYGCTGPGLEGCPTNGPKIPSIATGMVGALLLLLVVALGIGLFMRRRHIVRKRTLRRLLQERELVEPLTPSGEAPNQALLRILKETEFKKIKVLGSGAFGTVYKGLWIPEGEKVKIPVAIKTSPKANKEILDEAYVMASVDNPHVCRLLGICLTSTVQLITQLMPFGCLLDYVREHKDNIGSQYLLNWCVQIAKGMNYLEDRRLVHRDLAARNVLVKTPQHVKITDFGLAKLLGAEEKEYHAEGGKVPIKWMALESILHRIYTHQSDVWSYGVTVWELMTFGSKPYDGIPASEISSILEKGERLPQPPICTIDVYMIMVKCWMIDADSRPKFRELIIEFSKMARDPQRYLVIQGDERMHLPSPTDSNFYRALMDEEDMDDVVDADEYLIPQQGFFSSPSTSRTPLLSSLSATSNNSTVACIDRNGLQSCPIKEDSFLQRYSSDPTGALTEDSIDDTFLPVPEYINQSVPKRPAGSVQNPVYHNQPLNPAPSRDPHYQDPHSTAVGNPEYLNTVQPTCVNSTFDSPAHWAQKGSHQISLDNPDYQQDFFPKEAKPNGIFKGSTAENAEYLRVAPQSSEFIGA
Assay: PC-9 pEGFR AlphaLISA assay
Conditions: 4 hours incubation, p-EGFR (Tyr1068) AlphaLISA, read-out: Ext pEGFR_PC-9 Ex19Del IC50
In textbook form, pIC50 equals minus log to base ten of the concentration in mol/L.

In the examples that follow, each entry is paired with its recorded pIC50.
Specify measured pIC50 for COc1cc2ncnc(-c3cn(C)nc3-c3ccccc3)c2cc1OC(=O)N1C[C@@H](C)OC[C@@H]1C (racemic) [Example 91] .
8.02

Specify measured pIC50 for COc1cc2ncnc(-c3cn(C)nc3-c3ccccc3)c2cc1-c1cnc2c(ccn2C)c1 [Example 140] .
8.17

Specify measured pIC50 for COc1cc2ncnc(-c3cn(C)nc3-c3ccccc3)c2cc1O[C@@H]1CCN(C)C[C@H]1F [Example 1] .
8.38

Specify measured pIC50 for COc1cc2ncnc(-c3cn(CC(F)F)nc3-c3ccccc3)c2cc1NC(=O)[C@]12COC[C@H]1C2 [Example 275] .
8.72

Specify measured pIC50 for COc1cc2ncnc(-c3cn(C)nc3-c3ccccc3)c2cc1OC(=O)N1CCN(C)C[C@@H]1C (stereo in doubt) [Example 59] .
8.38

***
Specify measured pIC50 for CCC(=O)Nc1cc2c(-c3cn(C4COC4)nc3-c3ccccc3)ncnc2cc1OC [Example 249] .
8.68

Specify measured pIC50 for COc1cc2ncnc(-c3cn(CC(F)F)nc3-c3ccccc3)c2nc1NC(=O)[C@@]12C[C@@H]1CN(C)C2 (single isomer, unassigned) [Example 397] .
8.80

Specify measured pIC50 for COc1cc2ncnc(-c3cn(C)nc3-c3ccccc3)c2nc1NC(=O)[C@]1(C(F)(F)F)CCN(C)C1 (single isomer, unassigned) [Example 395] .
8.28

Specify measured pIC50 for COc1cc2ncnc(-c3cn(C)nc3-c3ccccc3)c2nc1O[C@H](C)c1cocn1 [Example 40] .
8.82

Specify measured pIC50 for COc1cc2ncnc(-c3cn(C)nc3-c3ccccc3)c2nc1OC(C)c1nnc(C)o1 (stereo not drawn) [Example 27] .
8.09
